Taken from ChEMBL document CHEMBL5325449.

Target of assay: 72 kDa type IV collagenase (Homo sapiens, UniProt P08253)
Sequence (P08253 whole entry, the tested form may be a part): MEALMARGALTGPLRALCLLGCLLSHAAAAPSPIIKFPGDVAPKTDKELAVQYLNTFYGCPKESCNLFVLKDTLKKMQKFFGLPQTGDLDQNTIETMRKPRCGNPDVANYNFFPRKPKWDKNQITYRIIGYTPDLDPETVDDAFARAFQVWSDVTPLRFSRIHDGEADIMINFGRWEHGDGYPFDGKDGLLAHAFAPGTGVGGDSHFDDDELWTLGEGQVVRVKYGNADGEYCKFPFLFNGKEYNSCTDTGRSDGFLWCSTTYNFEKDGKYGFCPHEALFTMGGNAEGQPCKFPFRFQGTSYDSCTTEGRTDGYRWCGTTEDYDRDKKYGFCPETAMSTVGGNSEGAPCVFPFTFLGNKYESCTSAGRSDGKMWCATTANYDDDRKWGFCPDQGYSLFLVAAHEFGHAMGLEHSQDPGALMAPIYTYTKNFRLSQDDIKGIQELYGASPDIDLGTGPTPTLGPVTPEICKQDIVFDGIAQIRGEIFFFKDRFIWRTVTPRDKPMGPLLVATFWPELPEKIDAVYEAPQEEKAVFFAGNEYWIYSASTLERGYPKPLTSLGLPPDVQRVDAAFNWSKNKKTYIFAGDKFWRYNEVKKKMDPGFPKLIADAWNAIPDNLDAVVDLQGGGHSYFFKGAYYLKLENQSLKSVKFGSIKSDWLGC
Measurement notes: Inhibition of human recombinant MMP-2 (34 to 660 residues) expressed in CHO cells using (7-methoxycoumarin-4-y1)-acetyl-Pro-Leu-Gly-Leu-[3-(2,4-dinitropheny1)-L-2,3-diaminopropionyl]-Ala-Arg-NH2 as substrate preincubated with enzyme for 30 mins followed by substrate addition and measured after 10 mins by fluorescence based analysis
pIC50: −log10 of the molar value.
Recorded metric: pIC50

- Sample smiles: "CCCN([C@@H](C(=O)O)C(C)C)S(=O)(=O)c1ccc(-c2nc(-c3ccc(C)s3)no2)cc1"
  Reading: 8.30
- Sample smiles: "Cc1ccc(-c2noc(-c3ccc(S(=O)(=O)N(C)[C@@H](C(=O)O)C(C)C)cc3)n2)s1"
  Reading: 8.30
- Sample smiles: "CCCCN([C@@H](C(=O)O)C(C)C)S(=O)(=O)c1ccc(-c2nc(-c3ccc(C)s3)no2)cc1"
  Reading: 8.00

[I] CCCCCCN([C@@H](C(=O)O)C(C)C)S(=O)(=O)c1ccc(-c2nc(-c3ccc(C)s3)no2)cc1
[II] Cc1ccc(-c2noc(-c3ccc(S(=O)(=O)N(CCF)[C@@H](C(=O)O)C(C)C)cc3)n2)s1
[III] Cc1ccc(-c2noc(-c3ccc(S(=O)(=O)N(Cc4ccccc4)[C@@H](C(=O)O)C(C)C)cc3)n2)s1
[IV] CCCCCN([C@@H](C(=O)O)C(C)C)S(=O)(=O)c1ccc(-c2nc(-c3ccc(C)s3)no2)cc1
Rank entries according to their pIC50, from the largest number down. Order the labels as requested and give them as your answer.
II, III, IV, I

---

Target of assay: Macrophage metalloelastase (Homo sapiens, UniProt P39900, V97L)
Sequence (P39900 whole entry V97L, the tested form may be a part): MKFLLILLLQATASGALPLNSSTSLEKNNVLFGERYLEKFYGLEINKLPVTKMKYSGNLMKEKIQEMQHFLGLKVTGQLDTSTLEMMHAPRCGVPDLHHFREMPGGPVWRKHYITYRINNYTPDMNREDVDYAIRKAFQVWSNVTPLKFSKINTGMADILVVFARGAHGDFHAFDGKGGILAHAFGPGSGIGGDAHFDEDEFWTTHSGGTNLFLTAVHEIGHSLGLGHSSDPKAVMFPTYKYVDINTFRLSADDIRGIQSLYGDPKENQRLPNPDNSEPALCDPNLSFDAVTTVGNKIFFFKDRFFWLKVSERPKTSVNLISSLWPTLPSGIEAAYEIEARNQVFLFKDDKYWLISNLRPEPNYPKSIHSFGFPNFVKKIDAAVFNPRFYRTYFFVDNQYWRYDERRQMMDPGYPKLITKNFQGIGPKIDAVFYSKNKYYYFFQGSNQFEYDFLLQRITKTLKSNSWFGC
Measurement notes: Inhibition of human recombinant MMP-12 (17 to 470 residues) Val97Leu mutant expressed in NS0 cells using (7-methoxycoumarin-4-y1)-acetyl-Pro-Leu-Gly-Leu-[3-(2,4-dinitropheny1)-L-2,3-diaminopropionyl]-Ala-Arg-NH2 as substrate preincubated with enzyme for 30 mins followed by substrate addition and measured after 10 mins by fluorescence based analysis
pIC50: −log10 of the molar value.
Recorded metric: pIC50

- Sample smiles: "CCCCCCCCN([C@@H](C(=O)O)C(C)C)S(=O)(=O)c1ccc(-c2nc(-c3ccc(C)s3)no2)cc1"
  Recorded metric: "pIC50"
  Reading: 5.44
- Sample smiles: "Cc1ccc(-c2noc(-c3ccc(S(=O)(=O)N(CCF)[C@@H](C(=O)O)C(C)C)cc3)n2)s1"
  Recorded metric: "pIC50"
  Reading: 7.44
- Sample smiles: "Cc1ccc(-c2noc(-c3ccc(S(=O)(=O)N(CCOCOCCCOCCN=[N+]=[N-])[C@@H](C(=O)O)C(C)C)cc3)n2)s1"
  Recorded metric: "pIC50"
  Reading: 6.74

[I] Cc1ccc(-c2noc(-c3ccc(S(=O)(=O)N(Cc4ccccc4)[C@@H](C(=O)O)C(C)C)cc3)n2)s1
[II] Cc1ccc(-c2noc(-c3ccc(S(=O)(=O)N(CCCCCCCCCCCCN=[N+]=[N-])[C@@H](C(=O)O)C(C)C)cc3)n2)s1
[III] CC(C)[C@@H](NS(=O)(=O)c1ccc(-c2nc(-c3ccc(Cn4cc(CCCCCF)nn4)s3)no2)cc1)C(=O)O
[IV] CCN([C@@H](C(=O)O)C(C)C)S(=O)(=O)c1ccc(-c2nc(-c3ccc(C)s3)no2)cc1
Endpoint returns the given compounds ordered by ascending pIC50. Form entry: labels listed in requested order.
II, I, IV, III
(II: 5.40, I: 6.95, IV: 7.24, III: 7.54)

---

Target of assay: Neutrophil collagenase (Homo sapiens)
Sequence (P22894 whole entry, the tested form may be a part): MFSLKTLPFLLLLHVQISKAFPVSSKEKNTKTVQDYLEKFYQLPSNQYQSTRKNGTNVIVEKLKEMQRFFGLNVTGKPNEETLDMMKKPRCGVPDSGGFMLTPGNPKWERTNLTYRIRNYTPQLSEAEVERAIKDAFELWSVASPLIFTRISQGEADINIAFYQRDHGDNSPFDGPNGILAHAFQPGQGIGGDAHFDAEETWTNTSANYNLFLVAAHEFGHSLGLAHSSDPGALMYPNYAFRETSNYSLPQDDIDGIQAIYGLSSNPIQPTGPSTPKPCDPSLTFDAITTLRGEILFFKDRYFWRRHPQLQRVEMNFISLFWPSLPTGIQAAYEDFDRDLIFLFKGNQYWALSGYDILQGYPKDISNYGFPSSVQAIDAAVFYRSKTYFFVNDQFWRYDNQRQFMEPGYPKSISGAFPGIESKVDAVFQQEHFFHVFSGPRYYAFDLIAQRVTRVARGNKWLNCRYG
Measurement notes: Inhibition of human recombinant MMP-8 (21 to 467 residues) expressed in NS0 cells using (7-methoxycoumarin-4-y1)-acetyl-Pro-Leu-Gly-Leu-[3-(2,4-dinitropheny1)-L-2,3-diaminopropionyl]-Ala-Arg-NH2 as substrate preincubated with enzyme for 30 mins followed by substrate addition and measured after 10 mins by fluorescence based analysis
Recorded metric: IC50 (µM)

Past entries and their recorded results:
- Sample smiles: "Cc1ccc(-c2noc(-c3ccc(S(=O)(=O)N(Cc4ccccc4)[C@@H](C(=O)O)C(C)C)cc3)n2)s1"
  Output unit: "µM"
  Reading: 0.58
- Sample smiles: "CCN([C@@H](C(=O)O)C(C)C)S(=O)(=O)c1ccc(-c2nc(-c3ccc(C)s3)no2)cc1"
  Output unit: "µM"
  Reading: 0.149
- Sample smiles: "CC(C)[C@@H](NS(=O)(=O)c1ccc(-c2nc(-c3ccc(Cn4cc(CCCCCF)nn4)s3)no2)cc1)C(=O)O"
  Output unit: "µM"
  Reading: 0.089

[1] CCCN([C@@H](C(=O)O)C(C)C)S(=O)(=O)c1ccc(-c2nc(-c3ccc(C)s3)no2)cc1
[2] Cc1ccc(-c2noc(-c3ccc(S(=O)(=O)N(CCOCOCCCOCCN=[N+]=[N-])[C@@H](C(=O)O)C(C)C)cc3)n2)s1
[3] CCCCN([C@@H](C(=O)O)C(C)C)S(=O)(=O)c1ccc(-c2nc(-c3ccc(C)s3)no2)cc1
[4] Cc1ccc(-c2noc(-c3ccc(S(=O)(=O)N(CCCCCCCCCCCCN=[N+]=[N-])[C@@H](C(=O)O)C(C)C)cc3)n2)s1
[5] Cc1ccc(-c2noc(-c3ccc(S(=O)(=O)N(CCCC(F)(F)F)[C@@H](C(=O)O)C(C)C)cc3)n2)s1
Rank the 5 compounds: largest IC50 first, smallest last. Would you mind listing the labels in the order requested?
4, 3, 5, 1, 2
(4: 0.923 µM, 3: 0.547 µM, 5: 0.371 µM, 1: 0.19 µM, 2: 0.083 µM)

---

Target of assay: Matrix metalloproteinase-9 (Homo sapiens, UniProt P14780, Q279R)
Sequence (P14780 107-707 Q279R limits assumed): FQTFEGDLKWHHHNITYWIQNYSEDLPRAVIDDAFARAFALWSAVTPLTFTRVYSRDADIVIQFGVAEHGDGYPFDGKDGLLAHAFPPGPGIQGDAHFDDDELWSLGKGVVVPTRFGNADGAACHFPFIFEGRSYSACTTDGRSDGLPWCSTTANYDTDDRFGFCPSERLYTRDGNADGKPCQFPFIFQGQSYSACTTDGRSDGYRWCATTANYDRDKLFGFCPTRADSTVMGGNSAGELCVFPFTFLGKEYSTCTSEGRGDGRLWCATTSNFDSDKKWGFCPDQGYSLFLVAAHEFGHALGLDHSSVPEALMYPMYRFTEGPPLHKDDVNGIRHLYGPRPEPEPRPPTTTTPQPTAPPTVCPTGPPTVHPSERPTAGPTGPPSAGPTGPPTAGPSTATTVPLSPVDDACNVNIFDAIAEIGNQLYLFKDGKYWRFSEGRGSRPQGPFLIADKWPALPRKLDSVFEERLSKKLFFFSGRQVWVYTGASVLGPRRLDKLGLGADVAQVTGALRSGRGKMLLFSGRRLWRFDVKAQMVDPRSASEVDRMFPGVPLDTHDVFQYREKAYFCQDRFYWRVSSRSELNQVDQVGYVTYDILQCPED
Measurement notes: Inhibition of human recombinant MMP-9 (20 to 707 residues) Gln279Arg mutant expressed in CHO cells using (7-methoxycoumarin-4-y1)-acetyl-Pro-Leu-Gly-Leu-[3-(2,4-dinitropheny1)-L-2,3-diaminopropionyl]-Ala-Arg-NH2 as substrate preincubated with enzyme for 30 mins followed by substrate addition and measured after 10 mins by fluorescence based analysis
pIC50: −log10 of the molar value.
Recorded metric: pIC50

- Sample smiles: "Cc1ccc(-c2noc(-c3ccc(S(=O)(=O)N[C@@H](C(=O)O)C(C)C)cc3)n2)s1"
  Recorded metric: "pIC50"
  Reading: 7.89
- Sample smiles: "CCN([C@@H](C(=O)O)C(C)C)S(=O)(=O)c1ccc(-c2nc(-c3ccc(C)s3)no2)cc1"
  Recorded metric: "pIC50"
  Reading: 7.48
- Sample smiles: "CCCCCCCCN([C@@H](C(=O)O)C(C)C)S(=O)(=O)c1ccc(-c2nc(-c3ccc(C)s3)no2)cc1"
  Recorded metric: "pIC50"
  Reading: 5.40

[P] CC(C)[C@@H](NS(=O)(=O)c1ccc(-c2nc(-c3ccc(Cn4cc(CCCCCF)nn4)s3)no2)cc1)C(=O)O
[Q] CCCCCN([C@@H](C(=O)O)C(C)C)S(=O)(=O)c1ccc(-c2nc(-c3ccc(C)s3)no2)cc1
[R] CCCCCCN([C@@H](C(=O)O)C(C)C)S(=O)(=O)c1ccc(-c2nc(-c3ccc(C)s3)no2)cc1
[S] Cc1ccc(-c2noc(-c3ccc(S(=O)(=O)N(CCCCF)[C@@H](C(=O)O)C(C)C)cc3)n2)s1
Place the items in sequence of falling pIC50. Enter labels, ranked according to the request.
S, Q, R, P
(S: 7.60, Q: 7.06, R: 6.48, P: 6.00)

[P] Cc1ccc(-c2noc(-c3ccc(S(=O)(=O)N(CCCCCCCCCCCCN=[N+]=[N-])[C@@H](C(=O)O)C(C)C)cc3)n2)s1
[Q] CC(C)[C@@H](NS(=O)(=O)c1ccc(-c2nc(-c3ccc(Cn4cc(CCCF)nn4)s3)no2)cc1)C(=O)O
[R] Cc1ccc(-c2noc(-c3ccc(S(=O)(=O)N(C)[C@@H](C(=O)O)C(C)C)cc3)n2)s1
Given 3 compounds, produce a descending ranking by pIC50. Form entry: ranked labels (order as requested).
R, Q, P

[a] CCCCN([C@@H](C(=O)O)C(C)C)S(=O)(=O)c1ccc(-c2nc(-c3ccc(C)s3)no2)cc1
[b] Cc1ccc(-c2noc(-c3ccc(S(=O)(=O)N(CCOCOCCCOCCN=[N+]=[N-])[C@@H](C(=O)O)C(C)C)cc3)n2)s1
[c] Cc1ccc(-c2noc(-c3ccc(S(=O)(=O)N(CCCC(F)(F)F)[C@@H](C(=O)O)C(C)C)cc3)n2)s1
With regard to pIC50, arrange the entries in ascending order, please. Put the labels in the order asked and list them.
c, a, b
(c: 6.81, a: 7.06, b: 7.44)

---

Target of assay: UniProtKB P08253
Measurement notes: Inhibition of human recombinant MMP-2 (34 to 660 residues) expressed in CHO cells using (7-methoxycoumarin-4-y1)-acetyl-Pro-Leu-Gly-Leu-[3-(2,4-dinitropheny1)-L-2,3-diaminopropionyl]-Ala-Arg-NH2 as substrate preincubated with enzyme for 30 mins followed by substrate addition and measured after 10 mins by fluorescence based analysis
Assay type: cell-based
pIC50: −log10 of the molar value.
Recorded metric: pIC50

Known pIC50 results, listed for orientation:
- Sample smiles: "CC(C)[C@@H](NS(=O)(=O)c1ccc(-c2nc(-c3ccc(Cn4cc(CCCCCF)nn4)s3)no2)cc1)C(=O)O"
  Target of assay: "UniProtKB P08253"
  pIC50: 7.66
- Sample smiles: "Cc1ccc(-c2noc(-c3ccc(S(=O)(=O)N(CCCCF)[C@@H](C(=O)O)C(C)C)cc3)n2)s1"
  Target of assay: "UniProtKB P08253"
  pIC50: 8.52
- Sample smiles: "CCCCCCCCN([C@@H](C(=O)O)C(C)C)S(=O)(=O)c1ccc(-c2nc(-c3ccc(C)s3)no2)cc1"
  Target of assay: "UniProtKB P08253"
  pIC50: 6.00
- Sample smiles: "CC(C)[C@@H](NS(=O)(=O)c1ccc(-c2nc(-c3ccc(Cn4cc(CCCF)nn4)s3)no2)cc1)C(=O)O"
  Target of assay: "UniProtKB P08253"
  pIC50: 7.80
- Sample smiles: "Cc1ccc(-c2noc(-c3ccc(S(=O)(=O)N(CCCC(F)(F)F)[C@@H](C(=O)O)C(C)C)cc3)n2)s1"
  Target of assay: "UniProtKB P08253"
  pIC50: 7.55

[A] Cc1ccc(-c2noc(-c3ccc(S(=O)(=O)N(CCCCCCCCCCCCN=[N+]=[N-])[C@@H](C(=O)O)C(C)C)cc3)n2)s1
[B] Cc1ccc(-c2noc(-c3ccc(S(=O)(=O)N(CCOCOCCCOCCN=[N+]=[N-])[C@@H](C(=O)O)C(C)C)cc3)n2)s1
[C] Cc1ccc(-c2noc(-c3ccc(S(=O)(=O)N[C@@H](C(=O)O)C(C)C)cc3)n2)s1
Order field: pIC50 | Direction: descending (largest first) // respond by listing labels in the order requested
C, B, A
(C: 8.40, B: 8.10, A: 7.24)
